# Assay System: cytochrome c oxidase (CcO) purified from bovine heart (Bos taurus, UniProt P00396+P68530)
# Construct: Cytochrome oxidase was isolated from bovine heart mitochondria; from tissue; host or cells: bovine heart mitochondria
# Protocol: Cytochrome oxidase activity assay (oxygen uptake, Clark-type electrode; ascorbate + TMPD + cytochrome c)
# Format: biochemical
# Experimental Conditions: from plot of Ki(app) for testosterone vs [DM], X-axis intercept; read-out: dissociation constant for DM in the absence of testosterone, Kc
Experimental Endpoint: Kd (µM)
Give your result in µM as a bare value.

Returns the measured Kd for the input compound. Input: CCCCCCCCCCCCO[C@@H]1O[C@H](CO)[C@@H](O[C@H]2O[C@H](CO)[C@@H](O)[C@H](O)[C@H]2O)[C@H](O)[C@H]1O [DM, dodecyl-maltoside]
1300
